src = patent US8071558B2

Target: sucrase (Rattus norvegicus, UniProt P23739)
Construct: from tissue; host or cells: small intestine of live male Wistar rats (oral sugar load)
Sequence (P23739 whole entry): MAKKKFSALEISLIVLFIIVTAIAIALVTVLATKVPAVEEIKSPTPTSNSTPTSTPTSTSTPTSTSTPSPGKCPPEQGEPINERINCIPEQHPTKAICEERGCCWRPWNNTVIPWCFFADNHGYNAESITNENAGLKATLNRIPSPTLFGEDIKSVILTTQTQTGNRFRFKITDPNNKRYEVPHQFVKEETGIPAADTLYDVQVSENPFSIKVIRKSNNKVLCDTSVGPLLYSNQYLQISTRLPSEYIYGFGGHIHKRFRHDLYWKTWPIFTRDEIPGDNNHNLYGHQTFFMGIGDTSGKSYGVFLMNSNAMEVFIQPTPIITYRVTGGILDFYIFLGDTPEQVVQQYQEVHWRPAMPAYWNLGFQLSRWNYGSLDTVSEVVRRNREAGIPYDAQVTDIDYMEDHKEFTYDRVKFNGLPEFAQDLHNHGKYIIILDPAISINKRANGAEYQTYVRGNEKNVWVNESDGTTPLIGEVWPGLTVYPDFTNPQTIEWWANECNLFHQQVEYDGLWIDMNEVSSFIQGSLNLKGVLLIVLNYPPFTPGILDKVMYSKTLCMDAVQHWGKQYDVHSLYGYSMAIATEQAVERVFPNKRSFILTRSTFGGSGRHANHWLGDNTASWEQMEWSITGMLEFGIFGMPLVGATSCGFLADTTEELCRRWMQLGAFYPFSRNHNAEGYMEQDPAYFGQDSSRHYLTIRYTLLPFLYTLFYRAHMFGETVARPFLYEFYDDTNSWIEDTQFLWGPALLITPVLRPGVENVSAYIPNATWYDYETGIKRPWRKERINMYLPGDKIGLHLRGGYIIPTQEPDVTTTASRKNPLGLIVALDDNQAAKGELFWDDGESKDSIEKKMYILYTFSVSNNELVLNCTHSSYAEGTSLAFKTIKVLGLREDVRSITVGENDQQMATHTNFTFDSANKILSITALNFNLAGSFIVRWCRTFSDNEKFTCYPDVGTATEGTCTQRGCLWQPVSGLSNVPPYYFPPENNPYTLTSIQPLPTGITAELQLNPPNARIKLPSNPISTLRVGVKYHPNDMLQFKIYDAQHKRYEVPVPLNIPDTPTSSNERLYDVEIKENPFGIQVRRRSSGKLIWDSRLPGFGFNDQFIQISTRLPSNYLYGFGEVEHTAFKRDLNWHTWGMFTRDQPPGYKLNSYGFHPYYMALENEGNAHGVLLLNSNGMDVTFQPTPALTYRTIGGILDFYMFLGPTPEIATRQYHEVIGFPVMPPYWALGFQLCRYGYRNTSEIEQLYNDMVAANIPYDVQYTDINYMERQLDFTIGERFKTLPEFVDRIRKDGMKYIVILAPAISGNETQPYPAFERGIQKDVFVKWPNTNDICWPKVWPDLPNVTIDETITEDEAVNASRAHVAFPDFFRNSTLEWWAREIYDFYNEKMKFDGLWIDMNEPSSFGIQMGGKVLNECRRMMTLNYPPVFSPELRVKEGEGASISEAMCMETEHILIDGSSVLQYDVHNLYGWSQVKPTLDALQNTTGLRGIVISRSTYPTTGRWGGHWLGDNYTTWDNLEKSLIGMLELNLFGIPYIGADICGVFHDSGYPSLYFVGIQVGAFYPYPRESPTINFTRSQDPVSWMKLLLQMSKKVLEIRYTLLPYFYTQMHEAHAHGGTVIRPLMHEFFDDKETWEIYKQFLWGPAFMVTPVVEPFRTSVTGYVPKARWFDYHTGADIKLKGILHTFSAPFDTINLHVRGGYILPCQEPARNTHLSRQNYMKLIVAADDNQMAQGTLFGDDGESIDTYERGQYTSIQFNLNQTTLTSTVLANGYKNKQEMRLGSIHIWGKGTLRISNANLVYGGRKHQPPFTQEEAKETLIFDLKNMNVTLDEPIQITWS
Assay: Sucrose administration experiment (inhibition of sucrase in vivo), plasma glucose
Details: rats, sucrose 2 g/kg + test sugar 200 mg/kg
Quantity: Plasma glucose level, 120 min (mg/dL)

[[record]]
chem_smiles = "O=C[C@H](O)[C@@H](O)[C@@H](O)CO"
units = "mg/dL"
endpoint_result = 142

[[record]]
chem_smiles = "O=C(CO)[C@@H](O)[C@H](O)[C@H](O)CO"
units = "mg/dL"
endpoint_result = 141

[[record]]
chem_smiles = "O=C(CO)[C@H](O)[C@H](O)[C@H](O)CO"
units = "mg/dL"
endpoint_result = 143

[[record]]
chem_smiles = "O=C[C@H](O)[C@@H](O)[C@H](O)CO"
units = "mg/dL"
endpoint_result = 137


----------
Biological target: sucrase (Rattus norvegicus)
Construct: from tissue; host or cells: small intestine of live male Wistar rats (oral sugar load)
Test: Sucrose administration experiment (inhibition of sucrase in vivo), plasma glucose
Details: rats, sucrose 2 g/kg + test sugar 200 mg/kg
Quantity: ΔAUC of plasma glucose level (min^− mg/dl)

Consider the following illustrative entries.
[[record]]
chem_smiles = "O=C(CO)[C@H](O)[C@H](O)[C@H](O)CO"
units = "min^− mg/dl"
endpoint_result = 5339

[[record]]
chem_smiles = "O=C[C@H](O)[C@@H](O)[C@@H](O)CO"
units = "min^− mg/dl"
endpoint_result = 4978


(a) O=C(CO)[C@@H](O)[C@H](O)[C@H](O)CO
(b) O=C[C@H](O)[C@@H](O)[C@H](O)CO
Hi, I'm comparing a with b and wondering which one has the bigger number for ΔAUC of plasma glucose level. Any idea? Use the label to indicate which entry you chose.
a
(a: 4732 min^− mg/dl, b: 2646 min^− mg/dl)
